Experiment: HILIC, Merck SeQuant ZIC-pHILIC, 150 × 2.1 mm, 5 µm, 40 °C, 0.3 mL/min, estimated dead time 1.1 min; A: acetonitrile; B: water + 2.8 mM ammonium formate, pH 9; gradient (min/%B) 0/5 1/5 10/51 13/51 13.1/5 20/5
Conditions: stereoisomer not certain
Classify: Satisfied when LC retention time is strictly less than 6 min; Not satisfied when LC retention time is not.

Is LC retention time of O=C([O-])c1cccnc1 [NICOTINATE] strictly below 6 min?
Satisfied

Is LC retention time of O=C(O)CCCCCCCCCO [10-HYDROXYDECANOATE] strictly below 6 min?
Satisfied

Is LC retention time of CSCC1OC(n2cnc3c(N)ncnc32)C(O)C1O (centres undefined) [METHYLTHIOADENOSINE] strictly below 6 min?
Satisfied

Is LC retention time of CN(C)C(N)=NCCCC(N)C(=O)O (centres undefined) [N,N-DIMETHYL-ARGININE] strictly below 6 min?
Satisfied

Is LC retention time of O=C(O)C=Cc1ccc(O)cc1 [4-COUMARATE] strictly below 6 min?
Satisfied

Is LC retention time of Nc1ncnc2c1ncn2C1OC(COP(=O)(O)O)C(O)C1O (centres undefined) [ADENOSINE-MONOPHOSPHATE] strictly below 6 min?
Not satisfied

Is LC retention time of Cn1cnc(C[C@H](N)C(=O)O)c1 [1-METHYL-L-HISTIDINE] strictly below 6 min?
Not satisfied

Is LC retention time of c1ncc2[nH]cnc2n1 [PURINE] strictly below 6 min?
Satisfied

Is LC retention time of O=C(O)CCC(=O)C(=O)O [OXOGLUTARATE] strictly below 6 min?
Not satisfied

Is LC retention time of O=C(O)CCCC(=O)C(=O)O [OXOADIPATE] strictly below 6 min?
Not satisfied

Is LC retention time of Nc1ccn(C2CC(O)C(CO)O2)c(=O)n1 (centres undefined) [DEOXYCYTIDINE] strictly below 6 min?
Not satisfied

Is LC retention time of O=C(O)C(O)c1ccc(O)c(O)c1 (centres undefined) [3,4 DIHYDROXYMANDELATE] strictly below 6 min?
Not satisfied

Is LC retention time of O=Cc1ccc(O)cc1 [4-HYDROXYBENZALDEHYDE] strictly below 6 min?
Satisfied

Is LC retention time of CCOC(=O)CC(=O)[O-] [MONOETHYLMALONATE] strictly below 6 min?
Not satisfied

Is LC retention time of O=c1[nH]cnc2c1ncn2C1OC(CO)C(O)C1O (centres undefined) [INOSINE] strictly below 6 min?
Not satisfied

Is LC retention time of O=C(O)c1ccc2ccccc2n1 [2-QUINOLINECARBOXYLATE] strictly below 6 min?
Satisfied

Is LC retention time of O=C1OC(C(O)CO)C(O)C1O [L-GULONOLACTONE] strictly below 6 min?
Not satisfied

---

Experiment: RP, Phenomenex Kinetex C18, 150 × 2.1 mm, 1.7 µm, 30 °C, 0.3 mL/min, estimated dead time 1.1 min; A: water + 0.1% formic acid, pH 3; B: acetonitrile + 0.1% formic acid, pH 3; gradient (min/%B) 0/2 14/100 17/100 17.1/2 25/2
Settings: stereoisomer not certain
Give LC retention time for every item shown.

# LC retention time (compound: `O=Cc1ccccc1` ) is 3.93 min

# LC retention time (compound: CSCCC(NC(C)=O)C(=O)O (stereo not given) ) is 4.1 min

# LC retention time (compound: CC(=O)NC(CC(=O)O)C(=O)O (stereo not given) [N-ACETYLASPARTATE] ) is 1.45 min

# LC retention time (compound: O=c1ccn(C2CC(O)C(CO)O2)c(=O)[nH]1 (stereo not given) ) is 2.39 min

# LC retention time (compound: NCC(N)C(=O)O (stereo not given) [2,3-DIAMINOPROPIONATE] ) is 2.37 min
